Molecular target: Adrenergic receptor alpha-2 (Rattus norvegicus, UniProt P22086+P19328+P22909)
Sequence (P22086 whole entry): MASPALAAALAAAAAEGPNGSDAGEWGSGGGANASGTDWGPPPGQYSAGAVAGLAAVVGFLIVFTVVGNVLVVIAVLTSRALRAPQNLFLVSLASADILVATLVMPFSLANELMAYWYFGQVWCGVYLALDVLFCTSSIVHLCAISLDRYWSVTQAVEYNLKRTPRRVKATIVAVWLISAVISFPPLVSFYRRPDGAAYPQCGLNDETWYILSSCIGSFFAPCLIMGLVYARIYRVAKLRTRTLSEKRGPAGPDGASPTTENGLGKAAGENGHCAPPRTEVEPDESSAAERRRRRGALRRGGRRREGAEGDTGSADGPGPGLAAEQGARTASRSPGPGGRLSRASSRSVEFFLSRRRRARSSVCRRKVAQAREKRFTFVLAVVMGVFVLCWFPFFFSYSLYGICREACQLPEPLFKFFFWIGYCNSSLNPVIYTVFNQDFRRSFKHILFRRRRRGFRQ
Sequence (P19328 whole entry): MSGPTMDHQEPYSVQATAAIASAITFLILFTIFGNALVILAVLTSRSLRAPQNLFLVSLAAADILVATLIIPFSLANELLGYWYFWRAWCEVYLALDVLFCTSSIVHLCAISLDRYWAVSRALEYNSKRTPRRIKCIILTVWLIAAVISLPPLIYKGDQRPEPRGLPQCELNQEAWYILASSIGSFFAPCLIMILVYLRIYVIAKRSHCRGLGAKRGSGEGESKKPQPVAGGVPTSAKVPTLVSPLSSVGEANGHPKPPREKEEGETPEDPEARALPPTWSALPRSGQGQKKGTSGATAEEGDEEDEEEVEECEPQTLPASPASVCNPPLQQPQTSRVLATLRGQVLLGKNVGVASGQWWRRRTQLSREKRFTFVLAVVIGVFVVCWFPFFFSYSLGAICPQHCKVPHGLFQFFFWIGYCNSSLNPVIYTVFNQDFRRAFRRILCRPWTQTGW
Sequence (P22909 whole entry): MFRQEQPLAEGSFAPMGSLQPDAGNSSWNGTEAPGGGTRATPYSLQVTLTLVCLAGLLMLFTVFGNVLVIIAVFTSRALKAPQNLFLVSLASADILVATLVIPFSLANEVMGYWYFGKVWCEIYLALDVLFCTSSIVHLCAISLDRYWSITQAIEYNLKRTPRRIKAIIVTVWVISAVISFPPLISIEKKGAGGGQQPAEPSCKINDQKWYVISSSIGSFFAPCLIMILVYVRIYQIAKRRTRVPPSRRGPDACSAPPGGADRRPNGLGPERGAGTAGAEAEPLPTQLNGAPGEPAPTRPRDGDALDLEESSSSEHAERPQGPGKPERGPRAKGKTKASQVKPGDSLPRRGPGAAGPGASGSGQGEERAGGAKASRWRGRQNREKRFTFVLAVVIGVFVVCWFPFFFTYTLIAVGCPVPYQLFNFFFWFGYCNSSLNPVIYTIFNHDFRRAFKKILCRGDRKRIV
Assay: In vitro binding affinity against alpha-2 adrenergic receptor in rat
readout.name: Ki (nM)

CCc1nc(Cc2c[nH]cn2)sc1CC
86
CC(C)c1nc(Cc2c[nH]cn2)c(C(C)C)o1
714
c1ccc2sc(Cc3c[nH]cn3)nc2c1
18
CCc1nc(C(C)c2c[nH]cn2)c(CC)s1 (configuration not stated)
407
CCc1csc(Cc2c[nH]cn2)n1
36
CCc1nc(Cc2c[nH]cn2)c(C(C)C)s1
235
CCCc1nc(Cc2c[nH]cn2)c(CCC)s1
97
CCCCc1nc(Cc2c[nH]cn2)c(CCCC)s1
35
CCc1nc(CC)c(C(C)c2c[nH]cn2)s1 (configuration not stated)
97
CCc1sc(C)nc1Cc1c[nH]cn1
10
c1nc(Cc2nc3c(s2)CCCC3)c[nH]1
110
CCc1nc(Cc2c[nH]cn2)c(CC)o1
58
CCc1sc(Cc2c[nH]cn2)nc1C
18
CCc1nc(CC)c(Cc2c[nH]cn2)s1
23
CCc1nc(Cc2c[nH]cn2)c(C)s1
57
Cc1nc(C)c(Cc2c[nH]cn2)s1
8
CCc1nc(Cc2[nH]cnc2C)c(CC)s1
53
CCc1nc(C(Cc2ccccc2)c2c[nH]cn2)c(CC)s1 (configuration not stated)
37
c1nc(Cc2nc3c(s2)CCC3)c[nH]1
28
CCc1cnc(Cc2c[nH]cn2)s1
381
